- assay_method_text: Single oral dose pharmacokinetic study in mice
- Type: in vivo, mouse
- recorded_conditions: female, BALB/c, mouse, plasma, po, 25 mg/kg, single oral gavage, 25 mg/kg, plasma, read-out: t½ (converted)
- Description: Female BALB/c mice of 17-21 grams were purchased from Charles River Laboratories (Wilmington, MA). Food and water were provided ad libitum. […] Plasma concentration was determined with a partially validated LC/MS-MS assay with multiple reaction monitoring detection (AB Sciex, Framingham, MA). […] The assay lower limit of quantification (LLOQ) was 4.57 nM in plasma. […] The terminal elimination rate (Lambda_z) and half-life (HL_Lambda_z) was determined using the default “Best Fit” method. […]
observation_type: half-life (h)
Give bare numbers, in h.

q: Return half-life (reported value) for this compound: COc1ccc(-c2c(C(F)(F)F)oc3c(CN4CCN(C)CC4)c(O)ccc3c2=O)cc1OC
a: 3
